tested on: Saccharomyces cerevisiae BY4741 SeMeCo community; assay: z-score of subpopulation abundance vs DMSO median, subpopulation auxotrophic for H; higher = larger share of this subpopulation than in DMSO controls; conditions: 10 µM; 24 h; SM minimal medium; subpopulation (auxotrophy): H
Structures can show the parent of a compound that is named as a salt.
Field: class. Source value: z-score of subpopulation abundance. Ranges: bucket A = under -0.5, bucket B = from -0.5 up to 0.3, bucket C = 0.3 and over

Would you mind sorting O=C(Nc1cccc(C2=NCCN2)c1)Nc1cccc(C2=NCCN2)c1 [Imidocarb dipropionate] into the appropriate category?
bucket A

Form: Item = `CC(=O)Oc1ccccc1C(=O)O` ; Class = ?
bucket C

Returns: class label. Input: CN[C@H]1CC[C@@H](c2ccc(Cl)c(Cl)c2)c2ccccc21 [Sertraline HCl]
bucket A

Lab note: which band did O=C(O)C1=C(CSc2nnnn2CS(=O)(=O)O)CS[C@@H]2[C@H](NC(=O)[C@H](O)c3ccccc3)C(=O)N12 [Cefonicid sodium] land in?
bucket B

Which bin, given its z-score of subpopulation abundance, does CC[N+](C)(C)c1cccc(O)c1 [Edrophonium chloride] occupy?
bucket A

In plain terms, what class is `CCN1CCN(C(=O)N[C@@H](C(=O)N[C@@H]2C(=O)N3C(C(=O)O)=C(CSc4nnnn4C)CS[C@H]23)c2ccc(O)cc2)C(=O)C1=O` ?
bucket C

State the class of the compound shown: CC(N)C12CC3CC(CC(C3)C1)C2 (stereo not drawn)
bucket C

Using the reported z-score of subpopulation abundance, which band applies to CC(C)N1CCN(c2ccc(OCC3COC(Cn4cncn4)(c4ccc(Cl)cc4Cl)O3)cc2)CC1 (stereo not drawn) ?
bucket B

Pick a category. Item: `CCCCCCCCCCCCCCCCOP(=O)([O-])OCC[N+](C)(C)C`
bucket A

Class? Entry: CCC(=O)NS(=O)(=O)c1ccc(-c2c(-c3ccccc3)noc2C)cc1 [Parecoxib Sodium]
bucket B

Using the reported z-score of subpopulation abundance, which band applies to `Nc1nc(=O)[nH]cc1F` ?
bucket C

Could you place `CC/C(=C(/CC)c1ccc(O)cc1)c1ccc(O)cc1` in its proper category? Many thanks.
bucket B

Form: Item = `CCS(=O)(=O)CCn1c([N+](=O)[O-])cnc1C` ; Class = ?
bucket A

For this compound, which bin applies? `Cc1cc2c(s1)Nc1ccccc1N=C2N1CCN(C)CC1`
bucket B

Please let me know in which category the item `O=C(O)CCC(=O)c1ccc(-c2ccccc2)cc1` belongs.
bucket C

Which z-score of subpopulation abundance band matches CN1C2CCC1CC(OC(=O)C(O)c1ccccc1)C2 (stereo not drawn) [Homatropine Bromide] ?
bucket B

# bin label for CN1C[C@@H]2C[C@H]1CN2c1cc2c(cc1F)c(=O)c(C(=O)O)cn2C1CC1 [Danofloxacin Mesylate]
bucket C

###

tested on: Saccharomyces cerevisiae BY4741 SeMeCo community; assay: z-score of subpopulation abundance vs DMSO median, subpopulation auxotrophic for HLUM; higher = larger share of this subpopulation than in DMSO controls; conditions: 10 µM; 24 h; SM minimal medium; subpopulation (auxotrophy): HLUM
Counter-ions that a name gives are not always drawn.
result.type: z-score of subpopulation abundance
Keep it simple and answer with nothing but the number.

If you can, please state the reported z-score of subpopulation abundance value of CCCCCCCCN=C(N)NC(N)=NCc1ccc(Cl)c(Cl)c1 [Olanexidine Hydrochloride semihydrate] .
213

# get_value(readout='z-score of subpopulation abundance', item= Cn1nnnc1SCC1=C(C(=O)O)N2C(=O)[C@@H](NC(=O)[C@H](OC=O)c3ccccc3)[C@H]2SC1 [Cefamandole nafate] )
0.78

What z-score of subpopulation abundance value was documented for this molecule, `Cc1cc2c(s1)Nc1ccccc1N=C2N1CCN(C)CC1` ?
0.21

Requested field: z-score of subpopulation abundance. Item: `OCCN(CCO)c1nc(N2CCCCC2)c2nc(N(CCO)CCO)nc(N3CCCCC3)c2n1`
-1.34

z-score of subpopulation abundance for `CC(=O)Oc1ccc(C(=C2CCCCC2)c2ccc(OC(C)=O)cc2)cc1` ?
-0.2

Quick one: z-score of subpopulation abundance for O=C(Nc1ccc(Oc2ccc(Cl)cc2)c(Cl)c1)c1cc(I)cc(I)c1O [Rafoxanide] ?
0.01

# z-score of subpopulation abundance lookup, item `COc1cccc2c1C(=O)c1c(O)c3c(c(O)c1C2=O)C[C@@](O)(C(=O)CO)C[C@@H]3O[C@H]1C[C@H](N)[C@H](O[C@@H]2CCCCO2)[C@H](C)O1`
1.36

Which z-score of subpopulation abundance is listed for `CCc1nc(N)nc(N)c1-c1ccc(Cl)cc1` ?
-0.2

Recorded z-score of subpopulation abundance of Cn1c(=O)c2c(ncn2CC(O)CO)n(C)c1=O (centres undefined) , please.
-0.64

I'd like to know its z-score of subpopulation abundance. The molecule in question is `Nc1nc2c(ncn2COCCO)c(=O)[nH]1`
0.48

Any idea what z-score of subpopulation abundance was measured for `Cc1c(Cl)cccc1Nc1ccccc1C(=O)O` ?
-1.09

Recorded z-score of subpopulation abundance for CCN(CC)C(=O)C1(c2ccccc2)CC1CN (centres undefined) [Milnacipran HCl] , please?
-0.13

I have this molecule here, COc1cccc(CCc2ccccc2OCC(CN(C)C)OC(=O)CCC(=O)O)c1 (centres undefined) [Sarpogrelate hydrochloride] , and I need its recorded z-score of subpopulation abundance.
-0.48

Returns the measured z-score of subpopulation abundance for the input molecule. Input: CN[C@@H]1[C@H](O[C@H]2[C@H](O[C@H]3[C@H](O)[C@@H](O)[C@H](NC(=N)N)[C@@H](O)[C@@H]3NC(=N)N)O[C@@H](C)[C@]2(O)CO)O[C@@H](CO)[C@H](O)[C@H]1O [Dihydrostreptomycin sulfate]
0.3

Give the measured z-score of subpopulation abundance of `Oc1ccc(Cl)c2cccnc12` .
43.7

Recorded z-score of subpopulation abundance for Fc1ccc([C@@H]2CCNC[C@H]2COc2ccc3c(c2)OCO3)cc1 [Paroxetine mesylate] , please?
-0.05

Entry under review: `CONC(=O)Nc1ccc(-c2sc3c(c2CN(C)C)c(=O)n(-c2ccc(OC)nn2)c(=O)n3Cc2c(F)cccc2F)cc1` . Reported z-score of subpopulation abundance?
0.58

What does the record list as z-score of subpopulation abundance for CO/N=C(\C(=O)N[C@@H]1C(=O)N2C(C(=O)[O-])=C(C[n+]3cccc4c3CCC4)CS[C@H]12)c1csc(N)n1 [Cefpirome sulfate] ?
0.23

GET /values?readout=z-score of subpopulation abundance&item= `CC[C@H](Nc1ncnc2[nH]cnc12)c1nc2cccc(F)c2c(=O)n1-c1ccccc1`
-0.62

Please give the measured z-score of subpopulation abundance for this molecule: C[N+]1(C)CCC(OC(=O)C(O)(c2ccccc2)C2CCCC2)C1 (centres undefined) [Glycopyrrolate]
-0.01

Fill in the blank: the reported z-score of subpopulation abundance of `C#C[C@]1(O)CC[C@H]2[C@@H]3CCc4cc(OC5CCCC5)ccc4[C@H]3CC[C@@]21C` is ____.
0.63

Need z-score of subpopulation abundance, item `Cc1[nH]c(=O)c(C#N)cc1-c1ccncc1`
-1.21

Dear colleague, I am looking for the recorded z-score of subpopulation abundance of the following molecule: `CN(C)CC/C=C1/c2ccccc2Sc2ccc(Cl)cc21`
-0.55

Requested field: z-score of subpopulation abundance. Item: CC1=C(CC(=O)O)c2cc(F)ccc2/C1=C\c1ccc([S+](C)[O-])cc1 (centres undefined)
-0.02

Record request: z-score of subpopulation abundance value, item `CN1CCc2cc3c(cc2C(=O)Cc2ccc4c(c2C1)OCO4)OCO3`
0.9

# input molecule: C#CCN[C@@H]1CCc2ccccc21 [Rasagiline Mesylate] ; wanted: its z-score of subpopulation abundance
0.44

Query (molecule): `CCS(=O)(=O)CCn1c([N+](=O)[O-])cnc1C` ; field requested: z-score of subpopulation abundance
-0.4

Suppose we examine the molecule CC[C@@]1(O)C(=O)OCc2c1cc1n(c2=O)Cc2cc3cc(O)ccc3nc2-1 [Hydroxy Camptothecine] ; what z-score of subpopulation abundance value has been reported?
0.8

What measured z-score of subpopulation abundance goes with C[N+](C)(C)CCOC(=O)CCC(=O)OCC[N+](C)(C)C [Succinylcholine Chloride Dihydrate] ?
0.02

z-score of subpopulation abundance lookup needed for CCC1(C)CC(=O)NC1=O (centres undefined) [Ethosuximide] , thanks.
0.48

Reported z-score of subpopulation abundance, molecule Fc1ccc([C@@H]2CCNC[C@H]2COc2ccc3c(c2)OCO3)cc1 [Paroxetine HCl] : ____
0.06

Quick one: z-score of subpopulation abundance of CCOc1cc(N)c([N+](=O)[O-])cc1C(=O)NC1CCN(CC2CC=CCC2)CC1 (centres undefined) [Cinitapride Hydrogen Tartrate] ?
0.5

Which z-score of subpopulation abundance value belongs to `CC#C[C@]1(O)CC[C@H]2[C@@H]3CCC4=CC(=O)CCC4=C3[C@@H](c3ccc(N(C)C)cc3)C[C@@]21C` ?
-0.67

z-score of subpopulation abundance for Clc1ccc(COC(Cn2ccnc2)c2ccc(Cl)cc2Cl)cc1 (centres undefined) [Econazole] ?
17.3

Sourced from the supplement of paper PMC8975748
